Just for reference, the supplement of paper PMC6470124 is where these values come from.

assay: absolute recovery over vacuum-assisted evaporative concentration; higher = better recovery; conditions: wastewater influent; enrichment method: VEC
Collected absolute recovery values appear next to each entry.
Reply with just the number (in %).

# example entries with known answers
compound	units.of.measure	assay.value
COC(=O)c1ccccc1S(=O)(=O)[N-]C(=O)Nc1nc(C)nc(OC)n1	%	105
CCN(CC)C(=O)c1cccc(C)c1	%	86.2
CCC(C)OC(=O)N1CCCCC1CCO (configuration not stated)	%	99.4
CCOc1cc(Oc2ccc(C(F)(F)F)cc2Cl)ccc1[N+](=O)[O-]	%	92.7
C[NH+](C)CCOC(c1ccccc1)c1ccccc1 [Diphenhydramine]	%	103

Incoming: Need absolute recovery of CC(C)N(C(=O)CS(=O)(=O)[O-])c1ccccc1 , thanks.
Outgoing: 96.6

Incoming: And then CC(=O)Nc1c(I)c(C(=O)[O-])c(I)c(C(=O)NCCO)c1I , what is it?
Outgoing: 101

Incoming: Repeat for the following compound: Cc1cc(C)nc([N-]S(=O)(=O)c2ccc(N)cc2)n1
Outgoing: 96.1

###

experiment: absolute recovery over mixed-bed multilayer solid-phase extraction; higher = better recovery; settings: nanopure water; enrichment method: SPE
measurement.label: absolute recovery (%)
Reply with just the number (in %).

# annotated cases, reported absolute recovery shown
compound	units.of.measure	absolute recovery
O=C([O-])c1ccc(-c2ccccc2-c2nn[nH]n2)cc1 [Valsartan-acid]	%	96.4
CCOc1nc2cccc(C(=O)[O-])c2n1Cc1ccc(-c2ccccc2-c2nnn[n-]2)cc1 [Candesartan]	%	96.9
CCOC1Oc2ccc(OS(C)(=O)=O)cc2C1(C)C (centres undefined) [Ethofumesat]	%	98.7
CC(=O)Nc1nnc(S([NH-])(=O)=O)s1 [Acetazolamide]	%	90.8
COc1ccc2cc(C(C)C(=O)[O-])ccc2c1 (centres undefined) [Naproxen]	%	96.1

Incoming: // returns reported absolute recovery for input COC=C(C(=O)OC)c1ccccc1Oc1cc(Oc2ccccc2C#N)ncn1 [Azoxystrobin]
Outgoing: 96.9

Incoming: Same read-out for CC(C)[NH2+]CC(O)COc1ccc(CC(N)=O)cc1 (centres undefined) [Atenolol] ?
Outgoing: 92.1

Incoming: Could you do the same for O=C([O-])C[N-]S(=O)(=O)C(F)(F)C(F)(F)C(F)(F)C(F)(F)C(F)(F)C(F)(F)C(F)(F)C(F)(F)F [FOSAA] , please?
Outgoing: 60.5

Incoming: Then CC(=NC#N)N(C)Cc1ccc(Cl)nc1 [Acetamiprid] ?
Outgoing: 110

Incoming: Query NS(=O)(=O)Cc1noc2ccccc12 [Zonisamide] next
Outgoing: 84.8

Incoming: What would you report for CN(C)C(=O)Nc1ccc(Cl)cc1 [Monuron] ?
Outgoing: 99.5

Incoming: What about COP(=O)(OC)OC=C(Cl)Cl [Dichlorvos] ?
Outgoing: 63.4

Incoming: Try COc1cc(OC)n2nc([N-]S(=O)(=O)c3c(C(F)(F)F)ccnc3OC)nc2n1 [Pyroxsulam] next.
Outgoing: 100

Incoming: Subsequent entry: CC(CN1c2ccccc2CCc2ccccc21)C[NH+](C)C (centres undefined) [Trimipramin]
Outgoing: 89.9

Incoming: Same read-out for CCc1ccc(C(=O)NN(C(=O)c2cc(C)cc(C)c2)C(C)(C)C)cc1 [Tebufenozid] ?
Outgoing: 104

Incoming: Now consider Cc1cc(C)nc(Nc2ccccc2)n1 [Pyrimethanil] and answer again.
Outgoing: 89.2

Incoming: Note, next up: CSC1=NC(C)(c2ccccc2)C(=O)N1Nc1ccccc1 (centres undefined) [Fenamidone]
Outgoing: 100

Incoming: What about this compound? [NH3+]CC1(CC(=O)[O-])CCCCC1 [Gabapentin]
Outgoing: 20.3

Incoming: Now the compound CCCCc1c(C)nc(NCC)nc1OS(=O)(=O)N(C)C [Bupirimate]
Outgoing: 83.8

Incoming: // query: NC(=O)c1cn(Cc2c(F)cccc2F)nn1 [Rufinamid]
Outgoing: 122

Incoming: Consider next the compound O=C(NCCN1CCOCC1)c1ccc(Cl)cc1 [Moclobemid] in the same way.
Outgoing: 91.4

Incoming: What would you report for CC(=O)OC1C(C)OC(n2cc(F)c(N)nc2=O)C1OC(C)=O (centres undefined) [2-3-di-O-acetyl-5-deoxy-5-fluorocytidin] ?
Outgoing: 102

###

assay: absolute recovery over mixed-bed multilayer solid-phase extraction; higher = better recovery; settings: surface water; enrichment method: SPE
measurement.label: absolute recovery (%)
Your answer is read as %, so omit the unit and give the number.

Some solved cases for reference:
compound	measurement.label	units.of.measure	assay.value
CNC(=O)Oc1cc(C)c(S(C)=O)c(C)c1 (stereo not drawn) [Methiocarb-sulfoxide]	absolute recovery	%	83
CCCCc1oc2ccc(NS(C)(=O)=O)cc2c1C(=O)c1ccc(OCCC[NH+](CCCC)CCCC)cc1	absolute recovery	%	87.9
CC(Oc1ccc(Cl)cc1Cl)C(=O)[O-] (stereo not drawn)	absolute recovery	%	95.4
CS(=O)(=O)c1ccc(C(=O)[C-]2C(=O)CCCC2=O)c(Cl)c1COCC(F)(F)F	absolute recovery	%	89.4
CC12CCC(=O)C=C1CCC1C2C(=O)CC2(C)C1CCC2(O)C(=O)CO (stereo not drawn)	absolute recovery	%	75.6

Incoming: What value of absolute recovery has been reported for the following compound? CCNC(=O)C(C)OC(=O)Nc1ccccc1 (stereo not drawn)
Outgoing: 100

Incoming: // same read-out, input: COCCN(C(=O)C(=O)[O-])c1c(C)cccc1C
Outgoing: 88

Incoming: Same question, CCC1OC(=O)C(C)C(OC2CC(C)(OC)C(O)C(C)O2)C(C)C(OC2OC(C)CC([NH+](C)C)C2O)C(C)(OC)CC(C)C(=O)C(C)C(O)C1(C)O (stereo not drawn) this time
Outgoing: 98.5

Incoming: Lookup CS(=O)(=O)c1ccc(C(=O)[C-]2C(=O)CCCC2=O)c(Cl)c1
Outgoing: 93.4

Incoming: Another compound to check: O=C(NCCc1ncc(C(F)(F)F)cc1Cl)c1ccccc1C(F)(F)F
Outgoing: 93.4

Incoming: Also check Cc1cc(Cl)ccc1OCC(=O)[O-]
Outgoing: 92.9

Incoming: How about this compound: COC(=O)c1ccc(C(F)(F)F)nc1S(=O)(=O)[N-]C(=O)Nc1nc(OC)cc(OC)n1
Outgoing: 97.5

Incoming: Cool, now CC=C1[NH+](C)C(C)CC1(c1ccccc1)c1ccccc1 (stereo not drawn)
Outgoing: 65

Incoming: What do you get for CC(C)[NH2+]CC(O)c1ccc(NS(C)(=O)=O)cc1 (stereo not drawn) ?
Outgoing: 93

Incoming: Also CCCC(CCC)(C(=O)[O-])C(=O)O ?
Outgoing: 88.7

###

assay: absolute recovery over vacuum-assisted evaporative concentration; higher = better recovery; details: wastewater influent; enrichment method: VEC
Catalogue of absolute recovery values
# unit: % | format: bare number

Consider the following illustrative entries.
molecule	assay.value
CS(=O)(=O)c1ccc(C(=O)[C-]2C(=O)CCCC2=O)c(Cl)c1	101
COC(=O)c1cccc(C)c1S(=O)(=O)[N-]C(=O)Nc1nc(OCC(F)(F)F)nc(N(C)C)n1	108
CON=C(C1=NOCCO1)c1ccccc1Oc1ncnc(Oc2ccccc2Cl)c1F	112
CC(=O)C1CCC2C3CCC4=CC(=O)CCC4(C)C3CCC12C (stereo not drawn)	6.6
NS(=O)(=O)c1cc2c(cc1Cl)NCNS2(=O)=O [Hydrochlorothiazid]	100
NC1=C(Cl)C(=O)c2ccccc2C1=O	106
CCC1OC(=O)C(C)C(OC2CC(C)(OC)C(O)C(C)O2)C(C)C(OC2OC(C)CC([N+](C)(C)[O-])C2O)C(C)(OC)CC(C)C(=O)C(C)C(O)C1(C)O (stereo not drawn) [Clarithromycin-N-Oxide]	95.9

Now, please, on to the next molecule.
Incoming: Fill in: absolute recovery of NC(=O)Nc1ccc(Cl)c(Cl)c1 is ___
Outgoing: 102

###

Recorded absolute recovery for the following molecules
test: absolute recovery over mixed-bed multilayer solid-phase extraction; higher = better recovery; conditions: surface water; enrichment method: SPE
Number in %, nothing else.

Solved entries (count: 4):
molecule	absolute recovery (%)
CC(=O)N(C)N(C(=O)C(=O)N(C)C)c1ccccc1 [AMDOPH]	93.2
O=C(C1CCCCC1)N1CC(=O)N2CCc3ccccc3C2C1 (stereo not given) [Praziquantel]	86.5
OC(Cc1ccccc1Cl)(Cn1cncn1)C1(Cl)CC1 (stereo not given) [Prothioconazole-desethio]	86.3
CC(C)N(Cc1ccccc1)C(=O)C(C)(C)C [Tebutam]	88.7

Turning now to a further molecule:
Incoming: Reported absolute recovery, molecule COc1cc2[nH+]c(N3CCN(C(=O)C4COc5ccccc5O4)CC3)nc(N)c2cc1OC (stereo not given) [Doxazosin] : ____
Outgoing: 114

###

assay: absolute recovery over mixed-bed multilayer solid-phase extraction; higher = better recovery; details: nanopure water; enrichment method: SPE
measurement.label: absolute recovery (%)
Please reply with the bare figure in % and do not write the unit itself.

molecule	assay.value
CC(=O)N(C)N(C(=O)C(=O)N(C)C)c1ccccc1	94.8

Please look at the following molecule next.
Incoming: Look up absolute recovery: Nc1c(Cl)c(F)nc(OCC(=O)[O-])c1Cl [Fluroxypyr (free acid)]
Outgoing: 97
